target: FXR (Homo sapiens (Human), UniProt Q96RI1)
Sequence (Q96RI1 262-486): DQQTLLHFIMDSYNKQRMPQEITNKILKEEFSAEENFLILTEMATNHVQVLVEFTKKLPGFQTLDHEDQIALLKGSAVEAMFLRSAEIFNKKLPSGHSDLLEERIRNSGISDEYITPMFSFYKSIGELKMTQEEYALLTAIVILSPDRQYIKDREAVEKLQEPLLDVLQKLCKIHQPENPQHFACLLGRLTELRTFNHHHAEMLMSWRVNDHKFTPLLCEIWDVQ
protocol_description: transient human FXR/Gal4-luciferase reporter assay
Assay type: cell-based
recorded_conditions: Gal4-hFXR fusion construct, HEK293 reporter cells; response relative to 8 μM GW-4064
Rule for this label: TRUE means EC50 is less than 200 nM; FALSE means EC50 is at least 200 nM.

                                   molecule  class_name
0  CCOc1ncc(-c2cccc(N(CC34CCC(c5nc(C(C)C)no5)(CC3)CC4)C(=O)C34CC(F)(C3)C4)c2)cn1 [Example 374]        TRUE

Continue with the next molecule.
// query Confirm or reject: EC50 of CCOc1cnc(-c2cccc(N(CC34CCC(c5nc(C(C)C)no5)(CC3)CC4)C(=O)C34CC(F)(C3)C4)c2)nc1 [Example 395] lies strictly below 200 nM
// result TRUE

====

Please respond with reported EC50 for every item in the list.
target: FXR (Homo sapiens (Human), UniProt Q96RI1)
protocol_description: FXR EC50 (FXR agonist potency reported with each Example)
Format: cell-based
Answers are plain numbers, in nM.

Report EC50 for every entry below.
1. O=C(N(CC12CCC(c3nc(C4CCOCC4)no3)(CC1)CC2)c1cccc(-c2nc(C3CC3)no2)c1)C12CC(F)(C1)C2
2. CC(C)c1nc(C23CCC(CN(C(=O)C45CC(F)(C4)C5)c4cccc(-c5nc(C6CC6)no5)c4)(CC2)CC3)no1
3. O=C(N(CC12CCC(c3nc(C4CC4)no3)(CC1)CC2)c1cccc(-c2cnc(C3CC3)o2)c1)C12CC(F)(C1)C2

// result
[121, 15, 72]

Report EC50 for every entry below.
1. N#CC1(c2ccc(C34CCC(CN(C(=O)C5CC(F)(F)C5)c5cccc(-c6nc(C7CC7)no6)c5)(CC3)CO4)cc2)CC1 [Example 142]
2. Cn1c(-c2cccc(N(CC34CCC(c5nc(C6CC6)no5)(CC3)CC4)C(=O)C34CC(F)(C3)C4)c2)nnc1C1CC1
3. COCc1coc(-c2cccc(N(CC34CCC(c5nc(C6CC6)no5)(CC3)CC4)C(=O)C3CC(F)(F)C3)c2)n1

// result
[583, 4410, 948]

====

target: FXR (Homo sapiens (Human), UniProt Q96RI1)
protocol_description: transient human FXR/Gal4-luciferase reporter assay
Type: cell-based
recorded_conditions: Gal4-hFXR fusion construct, HEK293 reporter cells; response relative to 8 μM GW-4064
Please respond with reported pEC50 for every item in the list.
Numbers only, as −log10 of the molar value.

Here's what some known entries look like.
                           substance_smiles  test_result
0  Cc1cc(-c2cccc(N(CC34CCC(c5nc(C6CC6)no5)(CC3)CC4)C(=O)C34CC(F)(C3)C4)c2)cn2ncnc12         6.16
1  CC(C)c1noc(C23CCC(CN(C(=O)C45CC(F)(C4)C5)c4cccc(-c5ccc(C(F)(F)F)cc5)c4)(CC2)CC3)n1         6.55

Now for another entry.
// query Could you tell me which pEC50 is on file for COc1cc(-c2cccc(N(CC34CCC(c5nnc(C)o5)(CC3)CC4)C(=O)C34CC(F)(C3)C4)c2)ccn1 ?
// result 6.01

These measurements were taken from patent US11254663B2.
